System: NCI-H929 (cancer type: MM)
Test: normalized area under the dose-response curve (viability relative to DMSO control) (fraction); higher = less sensitive (more viable cells)
Conditions: exposure time not given
Structures can show the parent of a compound that is named as a salt.
Decision: normalized area under the dose-response curve >= 0.8 yields fulfilled, all other cases yield not fulfilled.

Worked examples, 3 compounds total:
Nc1nc(F)nc2c1ncn2[C@@H]1O[C@H](COP(=O)(O)O)[C@@H](O)[C@@H]1O [Fludarabine phosphate] :: fulfilled
Cc1nc(Nc2ncc(C(=O)Nc3c(C)cccc3Cl)s2)cc(N2CCN(CCO)CC2)n1 :: not fulfilled
Cn1c(CCCC(=O)O)nc2cc(N(CCCl)CCCl)ccc21 [Bendamustine hydrochloride] :: not fulfilled

Is it the case that CCc1cnn2c(NCc3ccc[n+]([O-])c3)cc(N3CCCC[C@H]3CCO)nc12 has normalized area under the dose-response curve reaching or exceeding 0.8?
not fulfilled

Is it the case that CC(C)(O)CNc1nc(Nc2ccnc(C(F)(F)F)c2)nc(-c2cccc(C(F)(F)F)n2)n1 has normalized area under the dose-response curve reaching or exceeding 0.8?
fulfilled

Is it the case that CC(=O)c1c(C)c2cnc(Nc3ccc(N4CCNCC4)cn3)nc2n(C2CCCC2)c1=O has normalized area under the dose-response curve reaching or exceeding 0.8?
fulfilled

---

System: OCI-LY1 (cancer type: DLBCL)
Assay: normalized area under the dose-response curve (viability relative to DMSO control) (fraction); higher = less sensitive (more viable cells)
Conditions: exposure time not given
Counter-ions that a name gives are not always drawn.
observed property: normalized area under the dose-response curve
Just the number, please, no unit after it.

Cn1ncc(Cl)c1-c1cc(C(=O)N[C@H](CN)Cc2cccc(F)c2)sc1Cl :: 0.657
CO[C@H]1C[C@@H]2CC[C@@H](C)[C@@](O)(O2)C(=O)C(=O)N2CCCC[C@H]2C(=O)O[C@H]([C@H](C)C[C@@H]2CC[C@@H](OC(=O)C(C)(CO)CO)[C@H](OC)C2)CC(=O)[C@H](C)/C=C(\C)[C@@H](O)[C@@H](OC)C(=O)[C@H](C)C[C@H](C)/C=C/C=C/C=C/1C :: 0.685
CC[C@H](Nc1ncnc2[nH]cnc12)c1nc2cccc(F)c2c(=O)n1-c1ccccc1 :: 0.737

Record Cc1ccc(Nc2nccc(N(C)c3ccc4c(C)n(C)nc4c3)n2)cc1S(N)(=O)=O [Pazopanib hydrochloride] . Reported normalized area under the dose-response curve: 0.906

Record CCCS(=O)(=O)Nc1ccc(F)c(C(=O)c2c[nH]c3ncc(-c4ccc(Cl)cc4)cc23)c1F . Reported normalized area under the dose-response curve: 0.933

Record Cc1ccc(NC(=O)c2ccc(CN3CCN(C)CC3)cc2)cc1Nc1nccc(-c2cccnc2)n1 . Reported normalized area under the dose-response curve: 1

Record CS(=O)(=O)c1ccc(C(=O)Nc2ccc(Cl)c(-c3ccccn3)c2)c(Cl)c1 . Reported normalized area under the dose-response curve: 0.967

Record CN(C)C/C=C/C(=O)Nc1cc2c(Nc3ccc(F)c(Cl)c3)ncnc2cc1O[C@H]1CCOC1 . Reported normalized area under the dose-response curve: 0.796

Record C/C=C1\NC(=O)[C@H]2CSSCC/C=C/[C@H](CC(=O)N[C@H](C(C)C)C(=O)N2)OC(=O)[C@H](C(C)C)NC1=O . Reported normalized area under the dose-response curve: 0.118

Record C=CC(=O)Nc1cc(Nc2nccc(-c3cn(C)c4ccccc34)n2)c(OC)cc1N(C)CCN(C)C . Reported normalized area under the dose-response curve: 0.937

Record Cc1[nH]c(/C=C2\C(=O)Nc3ccc(F)cc32)c(C)c1C(=O)NCCN1CCCC1 . Reported normalized area under the dose-response curve: 1.06

Record CC(C)(O)CNc1nc(Nc2ccnc(C(F)(F)F)c2)nc(-c2cccc(C(F)(F)F)n2)n1 . Reported normalized area under the dose-response curve: 0.957

Record COc1cc2nccc(Oc3ccc(NC(=O)C4(C(=O)Nc5ccc(F)cc5)CC4)cc3)c2cc1OC [Cabozantinib] . Reported normalized area under the dose-response curve: 0.956

Record Cn1c(CCCC(=O)O)nc2cc(N(CCCl)CCCl)ccc21 [Bendamustine hydrochloride] . Reported normalized area under the dose-response curve: 0.832

Record O=C(c1ccc(OCCN2CCCCC2)cc1)c1c(-c2ccc(O)cc2)sc2cc(O)ccc12 . Reported normalized area under the dose-response curve: 0.932

Record CC(C)C[C@H](NC(=O)CNC(=O)c1cc(Cl)ccc1Cl)B(O)O . Reported normalized area under the dose-response curve: 0.362
